Numbers sourced from paper PMC6962393.

Would you kindly list log10 Kd for each of these binders?
measuredTarget: FN-B, recombinant human fibronectin extra domain B (EDB) as a single domain (human)
Sequence (chain, as listed by the source): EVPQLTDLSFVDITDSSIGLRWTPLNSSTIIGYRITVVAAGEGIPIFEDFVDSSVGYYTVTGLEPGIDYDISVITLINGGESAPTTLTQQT
testName: ELISA
Use the decimal logarithm of Kd (nM).

Specify log10 Kd for WKCQPTNGYRIRCRRDSDCPGDCICRGNGYCG (designed binder) [Trx-MC-FN-030, Thioredoxin-A fusion of cystine-knot miniprotein MC-FN-030] and stop.
2.37

Specify log10 Kd for SVCKNVSIMRIRLCRRDSDCPGACICRGNGYCG (designed binder) [Trx-MC-FN-050, Thioredoxin-A fusion of cystine-knot miniprotein MC-FN-050] and stop.
1.61

Specify log10 Kd for PMCTQRKNRIRLCRRDSDCTGACICRGNGYCG (designed binder) [Trx-MC-FN-010, Thioredoxin-A fusion of cystine-knot miniprotein MC-FN-010] and stop.
0.78

Specify log10 Kd for SVCKQANFVRIRLCRRDSDCPGACICRGNGYCG (designed binder) [Trx-MC-FN-060, Thioredoxin-A fusion of cystine-knot miniprotein MC-FN-060] and stop.
1.01

Specify log10 Kd for SVCAHYNTIRVRLCRRDSDCPGACICRGNGYCG (designed binder) [Trx-MC-FN-040, Thioredoxin-A fusion of cystine-knot miniprotein MC-FN-040] and stop.
1.38
